system: MS2 coat protein; assay: apparent KD of MS2 coat protein; designed switch direction (-1 OFF switch, 1 ON switch): -1; higher = weaker reporter binding; conditions: input ligand: FMN 200 uM
Listed here: items and their measured apparent KD of MS2 coat protein.

{"ENTRY SEQUENCE": "ACCGCUUCUGCAGGAUAUGGACAACAUGAGGAUCACCCAUGUGAUCUAUAAAGUAGUGGUGGCGUCCAGAAGGGCAGAUUAAGG [Maamabi] (Eterna round: R96, puzzle: Exclusion NG 2)", "apparent KD of MS2 coat protein": "197 nM"}
{"ENTRY SEQUENCE": "AUAUUUAGCUUUUUGUGAAACAUGAGGAUCACCCAUGUCCUCAUAACUGGACAUUUAAGUCUAGAAGCUCGUCUUAU [Last end dangle 3] (Eterna round: R97, puzzle: Sensor, turn-off variant 1)", "apparent KD of MS2 coat protein": "475 nM"}
{"ENTRY SEQUENCE": "GGGAAGAACCAACAAGUAUACAUGAGGAUCACCCAUGUUCCUAGUGGGUAUGUAAAGAUUAAGAGAGCUCGUCUUAU [AK-miRNA-r3-10] (Eterna round: R97, puzzle: Sensor, turn-off variant 1)", "apparent KD of MS2 coat protein": "66.9 nM"}
{"ENTRY SEQUENCE": "ACAUUGGUAGUGAGGAUAUCGGUGAGAUAGAAUGACGAGAAGGCACAUGAGGAUCACCCAUGUAAGAUUGGGCA [JR_BMEx4_Sub042] (Eterna round: R97, puzzle: Brourd's mod of Exclusion 4)", "apparent KD of MS2 coat protein": "286 nM"}

---

tested on: K4 kissing-loop RNA reporter; experiment: apparent KD of K4 kissing-loop reporter; higher = weaker reporter binding; conditions: Eterna round: R107; input ligand: arginine 13.2 mM;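 further: bound reporter read as fluorescence of individual clusters on recovered sequencing chips by microscopy, with normalized cluster intensities fitted with a binding model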
Note to self: class = bucket of apparent KD of K4 kissing-loop reporter, per low (below 200 nM), moderate (200 nM to below 400 nM), high (400 nM or more)

{"ENTRY SEQUENCE": "GAUUUAGAGGCGGCCGCCACUAGUGAUGUUAGUGAUGUUUGAUACGGAAUAUAUCUGCGAGUAGAUAGGACCGGGCCAGAUGGAG [rttrbmullin]", "LABEL": "low"}
{"ENTRY SEQUENCE": "UAUCGAGUGAUGUUCGAUGUAGUUCAUUCAGAGGAUAUAGGAUGGGCUAGAAGGCUGAAAAGUGCUUCGAGUGAUGUUCGAAGAU [Exclusion FMN A GF 6]", "LABEL": "low"}
{"ENTRY SEQUENCE": "GAUUGUGAUGGAAACAUCGCAAUCUCUGAAGGAGCGCGUGAAAACGCAGGUAGGUCGCAGGACGACUAUGACAGUGAUGUUGUCG [Ex Arginine A K4 3]", "LABEL": "moderate"}
{"ENTRY SEQUENCE": "GCGUCAUCGAAAGGAUAUGGAGUAGUGAUGUUGAUCCAUAUGCUCACGCAUAGCCGAGAACAUCGACCAGAAGGUUCAAGAACUG [theeternabot_exclusion_KL_FMN_B_41]", "LABEL": "high"}
{"ENTRY SEQUENCE": "CCUAUCUCAUACGAUACCAGUCAACGAGUGAUGUUCGAAUAAAUAAAUUUGCCAAAUAAUGACCCUUGGCAGCGUAUGGGAUAGG [Ex Theophylline B K4 15]", "LABEL": "moderate"}
{"ENTRY SEQUENCE": "ACACUCGGCUCGGCCGCCACUCCAGUGAUGUUGGAGUCAUAGCUAUGACGAGAAGAGCGUUUUCGGAGGACCGGGAGCUCACAGG [Leveeder]", "LABEL": "moderate"}
{"ENTRY SEQUENCE": "ACGUAGUUCUAGGAUACCAGCCAAGGCCCAGGACAAAAGUCCUGGGUCGCCAGUGAUGUUGGCCCUUGGCAGCCUAGAACUACGA [Omei KL Theo B Exc B v11]", "LABEL": "moderate"}
{"ENTRY SEQUENCE": "UGAUACCAGACGGCCGCCACUUCUGCAAGUCAAAGACUUGCCAAGGGAAUCGUCCAGUGAUGUUGGAGGACCGGGUCUGGUAUCU [FiskerMod 3 - Jieux - Exclusion - Tryptophan B]", "LABEL": "high"}
{"ENTRY SEQUENCE": "CGCAGUGAUGUUGCGAGUUUAUUCAGGGAAGGAGCGCCACAGAUGGCAGGUAGGUCGCCCACGCAGUGAUGUUGUGUAUUCGGGU [Exclusion Arginine A GF 3]", "LABEL": "low"}
{"ENTRY SEQUENCE": "AGCGAUGUUUUCUCUAAGAGUGAUGUUUUUCGAGGACCGGUACGGCCGCCACUCGAAUAAAGUGUGCGGUAGUGAGCUGUUGACA [#18 K4 Tryptophan A Exclusion]", "LABEL": "high"}
{"ENTRY SEQUENCE": "UGAUAGGACAGAAGGAGCGGAAGCUAGUCAAAGACUAGCACGUUAAUAACAGGAGUGAUGUUCCAGGUAGGUCGCUGUCCUAUCU [ArgBX 24 #SwitchBubble #StaticStem]", "LABEL": "low"}
